EXPERIMENTAL_SYSTEM: T1, N-terminally FLAG-tagged mouse Ang2 (HEK293T conditioned medium) (mouse, UniProt O35608 19-496)
T1 construct: may be a nucleotide entry; also called mAng2; FLAG-mAng2
T1 sequence: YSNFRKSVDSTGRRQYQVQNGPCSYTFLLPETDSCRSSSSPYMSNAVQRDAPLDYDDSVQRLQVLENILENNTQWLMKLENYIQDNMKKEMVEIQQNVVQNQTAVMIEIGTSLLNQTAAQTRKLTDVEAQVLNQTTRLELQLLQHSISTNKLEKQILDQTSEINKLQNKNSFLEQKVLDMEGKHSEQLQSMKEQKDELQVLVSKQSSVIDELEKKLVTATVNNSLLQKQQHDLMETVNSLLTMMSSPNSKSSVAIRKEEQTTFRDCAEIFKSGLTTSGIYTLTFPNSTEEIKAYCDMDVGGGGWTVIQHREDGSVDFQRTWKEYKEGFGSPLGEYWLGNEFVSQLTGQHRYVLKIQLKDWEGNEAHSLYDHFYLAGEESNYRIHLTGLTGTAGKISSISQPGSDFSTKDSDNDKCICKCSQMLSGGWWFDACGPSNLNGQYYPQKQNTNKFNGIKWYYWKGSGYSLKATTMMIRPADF
EXPERIMENT: competition ELISA, FLAG-mAng2 on coated mTie2-Fc
Method: In brief, 2 μg/mL of recombinant mouse Tie2-Fc or cyno Tie2-Fc is coated overnight at 4° C. in a 96-well MaxiSorp plate (Nunc, Wiesbaden, Germany). Coated wells are blocked with a 1% casein solution.
READOUT_TYPE: IC50 (nM)

{"BINDER": "VHH 14H02 (VHH, also called 014H02; not shown: C-terminal c-myc tag and His6 tag) VHH: EVQLVESGGGLVQAGGSLRLSCAASGFTFDEYAIGWFRQAPGKEREGVSYISSSDGSTYYADSVKGRVTSSSDNAKNTVYLQMNSLKPEDTAVYYCAARPTLRVRLDNDRHHLLYEYEYDYWGQGTQVTVSS", "READOUT_UNIT": "nM", "REPORTED": 143}
{"BINDER": "VHH 10H02 (VHH, also called 010H02; not shown: C-terminal c-myc tag and His6 tag) VHH: EVQLVESGGGSVQAGGSLRLSCAASGFTFDDYAIGWFRQAPGKEREGVSCISSSDGSTNYADSVKGRFTISSDTAKNTVYLQMNSLKPEDTAVYYCTAVPATRRTPQMVDANMCWLAEYEYDYWGQGTQVTVSS", "READOUT_UNIT": "nM", "REPORTED": 5.2}
{"BINDER": "VHH 12B03 (VHH, also called 012B03; not shown: C-terminal c-myc tag and His6 tag) VHH: EVQLVESGGGLVQSGGSLRLSCAASGFALDYYTIGWFRQAPGKEREGVSCISGGDTSTYYADSVKGRFTISRDNAKNTVYLQMNSLKPEDTAVYYCATDSAGVPAGPAAVYGSTCSRLEYDYWGQGAQVTVSS", "READOUT_UNIT": "nM", "REPORTED": 6.7}
{"BINDER": "VHH 3A07 (VHH, also called 003A07; not shown: C-terminal c-myc tag and His6 tag) VHH: EVQLVESGGGLVQPGGSLRLSCAASGFTLDYDAIGWFRQAPGKEREGVSCITSSDGITYYADSVKGRFTISRDNAKNTVYLQMNSLKPEDTAVYYCATGNRRIYYSDYALACFPYEYDYWGQGTQVTVSS", "READOUT_UNIT": "nM", "REPORTED": 99.3}

Where these numbers come from: patent US20230203146A1
